Test system: PRKD3
TEST SETTINGS: concentration: 1 μM, replicates: in singlicate; n = 1;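 further: KINOMEscan kinase panel screen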
QUANTITY KIND: %Inh

[
  {
    "COMPOUND": "Cc1cccc(-c2nc(C)cc(Nc3ccncc3)n2)n1 [GSK257997]",
    "QUANTITY KIND": "%Inh",
    "ENDPOINT RESULT": "85%"
  },
  {
    "COMPOUND": "Cc1cc(-c2ccc3c(c2)CC[C@@H](N[C@@H](C)c2ccccc2)C3)cnc1N.Cl [GW412617]",
    "QUANTITY KIND": "%Inh",
    "ENDPOINT RESULT": "0%"
  },
  {
    "COMPOUND": "CS(=O)(=O)c1ccc(-c2nc3n(c2-c2ccncc2)CCC3)cc1 [SKF-105942]",
    "QUANTITY KIND": "%Inh",
    "ENDPOINT RESULT": "0%"
  },
  {
    "COMPOUND": "Nc1nc(-c2nccs2)c(-c2ccnc3ccccc23)s1 [GW693542]",
    "QUANTITY KIND": "%Inh",
    "ENDPOINT RESULT": "12%"
  }
]

----------
Tested on: RIOK3
TEST SETTINGS: concentration: 1 μM, replicates: in singlicate; n = 1

[
  {
    "STRUCTURE": "Cc1ccc(NC(=O)Nc2cccc(Cl)c2)cc1-c1ccc(C(=O)Nc2ccncc2)cc1",
    "SUBJECT OF TEST": "RIOK3",
    "%Inh / %": 59
  },
  {
    "STRUCTURE": "COc1cccc(-c2cc(-c3c[nH]nc3-c3ccccn3)ccn2)c1",
    "SUBJECT OF TEST": "RIOK3",
    "%Inh / %": 91.4
  },
  {
    "STRUCTURE": "Cn1ccc2ncnc(Oc3ccc(Nc4nc5ccccc5[nH]4)cc3)c21",
    "SUBJECT OF TEST": "RIOK3",
    "%Inh / %": 0
  },
  {
    "STRUCTURE": "Nc1nc(-c2nccs2)c(-c2ccnc3ccccc23)s1",
    "SUBJECT OF TEST": "RIOK3",
    "%Inh / %": 38
  },
  {
    "STRUCTURE": "CS(=O)(=O)c1ccc(-c2c(-c3ncn[nH]3)sc(N3CCOCC3)c2C#N)cc1",
    "SUBJECT OF TEST": "RIOK3",
    "%Inh / %": 0
  }
]

----------
Tested on: CSNK1D
TEST SETTINGS: concentration: 1 μM, replicates: in singlicate; n = 1
The label Y is reserved for %Inh strictly under 20%; N covers values equal to or above it.

[
  {
    "COMPOUND": "O=C(Nc1ccccc1)Nc1cccc(Oc2ccc3nccn3n2)c1",
    "LABEL VALUE": "Y"
  },
  {
    "COMPOUND": "Cc1cc(N2Cc3ccccc3C2)nc(Nc2ccc(S(=O)(=O)N3CCOCC3)cc2)n1.Cl",
    "LABEL VALUE": "Y"
  },
  {
    "COMPOUND": "O=c1cc(N2CCOCC2)nc2n(Cc3cccc(Cl)c3Cl)ccn12",
    "LABEL VALUE": "N"
  },
  {
    "COMPOUND": "COc1cc2ncn(-c3cc(OCC4CCCO4)c(C(N)=O)s3)c2cc1OC (stereo not drawn)",
    "LABEL VALUE": "Y"
  },
  {
    "COMPOUND": "Nc1ncnc2[nH]c(-c3ccccc3)nc12",
    "LABEL VALUE": "N"
  }
]

----------
System: NDR2
TEST SETTINGS: concentration: 1 μM, replicates: in singlicate; n = 1

[
  {
    "COMPOUND": "COC(=O)c1c(-c2ccccc2)c2cc(C(=O)O)ccc2c(=O)n1Cc1ccccc1",
    "%Inh (%)": 0
  },
  {
    "COMPOUND": "Cc1cccc(-c2nc(C)cc(Nc3ccncc3)n2)n1",
    "%Inh (%)": 0
  },
  {
    "COMPOUND": "CC1=C(C(=O)Nc2cc3cn[nH]c3cc2F)C(c2ccc(C(F)(F)F)cc2)CC(=O)N1 (stereo not shown)",
    "%Inh (%)": 0
  },
  {
    "COMPOUND": "Cc1ccccc1-n1cnc2c(N)ncnc21",
    "%Inh (%)": 20
  },
  {
    "COMPOUND": "O=C(Nc1n[nH]c2nc(-c3nccs3)c(Br)cc12)C1CCCC1",
    "%Inh (%)": 0
  },
  {
    "COMPOUND": "Cc1c(Cn2ccn3c(=O)cc(N4CCOCC4)nc23)cccc1C(F)(F)F",
    "%Inh (%)": 0
  },
  {
    "COMPOUND": "COc1ccccc1-c1ccc2c(NC(=O)C3CC3)n[nH]c2n1",
    "%Inh (%)": 0
  },
  {
    "COMPOUND": "COc1ccc2nc(-c3cccc(C)n3)nc(Nc3ccncc3)c2c1",
    "%Inh (%)": 0
  },
  {
    "COMPOUND": "CCn1c(-c2ccccn2)nc2cnccc21",
    "%Inh (%)": 0
  },
  {
    "COMPOUND": "O=S(=O)(c1ccc(-c2ccnc3[nH]ccc23)cc1)N1CCCC1",
    "%Inh (%)": 38
  },
  {
    "COMPOUND": "CS(=O)(=O)c1ccc(-c2c(-c3ncn[nH]3)sc(N3CCOCC3)c2C#N)cc1",
    "%Inh (%)": 0
  },
  {
    "COMPOUND": "COc1cc2ncnc(Nc3ccc4nc(-c5ccccc5)[nH]c4c3)c2cc1OC.Cl",
    "%Inh (%)": 0
  },
  {
    "COMPOUND": "Cc1nnc(-c2ccc3occ(-c4ccc(S(C)=O)cc4)c3c2)[nH]1 (stereo not shown)",
    "%Inh (%)": 0
  },
  {
    "COMPOUND": "Cn1cncc1-c1ccc2ncnc(Nc3ccc(OCc4ccccc4)cc3)c2c1",
    "%Inh (%)": 0
  },
  {
    "COMPOUND": "Cc1cccc(-c2nc(-c3ccc(S(C)(=O)=O)cc3)sc2-c2ccnc(NCCc3ccccc3)c2)c1",
    "%Inh (%)": 0
  },
  {
    "COMPOUND": "CN1C(=O)C(Nc2ccc(Cl)c(C(=O)O)c2)=C(c2ccc(Cl)cc2)C1=O",
    "%Inh (%)": 1
  },
  {
    "COMPOUND": "COc1ccc(CNC(=O)NC2CCN(c3ccnc(Nc4cc(OC)c(OC)c(OC)c4)n3)C2)cc1 (stereo not shown)",
    "%Inh (%)": 44
  },
  {
    "COMPOUND": "Cc1c(O)cccc1Nc1ccnc2ccc(C(F)(F)F)cc12.Cl",
    "%Inh (%)": 0
  },
  {
    "COMPOUND": "COc1ccccc1CNC(=O)c1cc(C(=O)c2ccccc2C)c[nH]1",
    "%Inh (%)": 0
  },
  {
    "COMPOUND": "O=C1NC(=O)C(N2CCc3ccccc32)=C1c1ccccc1Cl",
    "%Inh (%)": 0
  },
  {
    "COMPOUND": "CSc1nn2c(=O)cc(N3CCOCC3)nc2n1Cc1cccc(C(F)(F)F)c1C",
    "%Inh (%)": 0
  },
  {
    "COMPOUND": "COc1cc2ncn(-c3cc(OCC4CCCO4)c(C(N)=O)s3)c2cc1OC (stereo not shown)",
    "%Inh (%)": 10
  },
  {
    "COMPOUND": "Cl.c1ccc(-c2n[nH]cc2-c2ccnc(-c3ccc(CN4CCOCC4)cc3)c2)nc1",
    "%Inh (%)": 31
  },
  {
    "COMPOUND": "Fc1cc(Cl)ccc1Nc1ccnc2cc(I)ccc12",
    "%Inh (%)": 0
  },
  {
    "COMPOUND": "Cc1ccc(NC(=O)Nc2cccc(Cl)c2)cc1-c1ccc(C(=O)Nc2ccncc2)cc1",
    "%Inh (%)": 0
  },
  {
    "COMPOUND": "COc1ccc(Nc2nccc(NCCNC(=O)Nc3ccccc3F)n2)cc1",
    "%Inh (%)": 0
  },
  {
    "COMPOUND": "COc1ccc(C2=C(Nc3cccc(C(=O)O)c3)C(=O)NC2=O)cc1",
    "%Inh (%)": 13
  },
  {
    "COMPOUND": "CC(=O)Nc1nc2cnc(Nc3cc(NC(=O)c4cccc(CCC#N)c4)ccc3C)nc2s1",
    "%Inh (%)": 22
  }
]

----------
Measured %Inh, listed per entry for reference.
Tested on: RPS6KA4(Kin.Dom.1-N-terminal)
TEST SETTINGS: concentration: 1 μM, replicates: in singlicate; n = 1
QUANTITY KIND: %Inh (%)

[
  {
    "COMPOUND": "CC(C)(C)c1ccc(C(=O)Nc2cn3cc(Cl)ccc3n2)cc1",
    "SUBJECT OF TEST": "RPS6KA4(Kin.Dom.1-N-terminal)",
    "QUANTITY KIND": "%Inh",
    "ENDPOINT RESULT": 7
  },
  {
    "COMPOUND": "COc1ccc(CNC(=O)NC2CCN(c3ccnc(Nc4cc(OC)c(OC)c(OC)c4)n3)C2)cc1 (stereo not drawn) [GSK1379748]",
    "SUBJECT OF TEST": "RPS6KA4(Kin.Dom.1-N-terminal)",
    "QUANTITY KIND": "%Inh",
    "ENDPOINT RESULT": 0
  },
  {
    "COMPOUND": "COc1cccc(NC(=O)NC2CCN(c3ccnc(Nc4ccc(F)cc4)n3)C2)c1 (stereo not drawn) [GSK1379721]",
    "SUBJECT OF TEST": "RPS6KA4(Kin.Dom.1-N-terminal)",
    "QUANTITY KIND": "%Inh",
    "ENDPOINT RESULT": 0
  },
  {
    "COMPOUND": "COc1cccc(-c2cc(-c3c[nH]nc3-c3ccccn3)ccn2)c1 [GW680338]",
    "SUBJECT OF TEST": "RPS6KA4(Kin.Dom.1-N-terminal)",
    "QUANTITY KIND": "%Inh",
    "ENDPOINT RESULT": 18
  },
  {
    "COMPOUND": "NC(=O)c1nnc2ccccc2c1N",
    "SUBJECT OF TEST": "RPS6KA4(Kin.Dom.1-N-terminal)",
    "QUANTITY KIND": "%Inh",
    "ENDPOINT RESULT": 21
  },
  {
    "COMPOUND": "Cl.c1ccc(-c2n[nH]cc2-c2ccnc(-c3ccc(CN4CCOCC4)cc3)c2)nc1 [GW776245]",
    "SUBJECT OF TEST": "RPS6KA4(Kin.Dom.1-N-terminal)",
    "QUANTITY KIND": "%Inh",
    "ENDPOINT RESULT": 0
  },
  {
    "COMPOUND": "Nc1nc(-c2nccs2)c(-c2ccnc3ccccc23)s1 [GW693542]",
    "SUBJECT OF TEST": "RPS6KA4(Kin.Dom.1-N-terminal)",
    "QUANTITY KIND": "%Inh",
    "ENDPOINT RESULT": 20
  },
  {
    "COMPOUND": "COc1ccc2nc(-c3cccc(C)n3)nc(Nc3ccncc3)c2c1 [GSK204919]",
    "SUBJECT OF TEST": "RPS6KA4(Kin.Dom.1-N-terminal)",
    "QUANTITY KIND": "%Inh",
    "ENDPOINT RESULT": 12
  },
  {
    "COMPOUND": "COc1cc2ncnc(Nc3ccc4nc(-c5ccccc5)[nH]c4c3)c2cc1OC.Cl [GW282450]",
    "SUBJECT OF TEST": "RPS6KA4(Kin.Dom.1-N-terminal)",
    "QUANTITY KIND": "%Inh",
    "ENDPOINT RESULT": 6
  },
  {
    "COMPOUND": "O=C(Nc1ccccc1)Nc1cccc(Oc2ccc3nccn3n2)c1",
    "SUBJECT OF TEST": "RPS6KA4(Kin.Dom.1-N-terminal)",
    "QUANTITY KIND": "%Inh",
    "ENDPOINT RESULT": 43
  },
  {
    "COMPOUND": "Cc1cccc(-c2nc(Nc3ccncc3)c3ccccc3n2)n1 [GW855857]",
    "SUBJECT OF TEST": "RPS6KA4(Kin.Dom.1-N-terminal)",
    "QUANTITY KIND": "%Inh",
    "ENDPOINT RESULT": 20
  },
  {
    "COMPOUND": "COc1ccccc1CNC(=O)c1cc(C(=O)c2ccccc2C)c[nH]1 [GSK364507]",
    "SUBJECT OF TEST": "RPS6KA4(Kin.Dom.1-N-terminal)",
    "QUANTITY KIND": "%Inh",
    "ENDPOINT RESULT": 5
  }
]

Hello, the source for this data is paper PMC5540273, in case you need it.
